Data origin: paper PMC12668182

system: T1, N-Avi-Biotin-SNM1A (a.a. 698-1040), wild type (human, UniProt Q6PJP8 698-1040, biotin on the N-terminal Avi tag)
T1 construct: SNM1A (DCLRE1A), human, core catalytic domain (MBL-beta-CASP), residues 698-1040; Immobilised in SPR through the biotinylated Avi tag; held on streptavidin mutein beads in the co-purifications; also called N-Avi-SNM1A_(698-1040); core catalytic domain of SNM1A; source: Sf9 insect cells (BirA co-expressed, D-biotin added), purified (streptavidin mutein matrix, Superdex S75); not shown: Avi …
T1 sequence (looked up): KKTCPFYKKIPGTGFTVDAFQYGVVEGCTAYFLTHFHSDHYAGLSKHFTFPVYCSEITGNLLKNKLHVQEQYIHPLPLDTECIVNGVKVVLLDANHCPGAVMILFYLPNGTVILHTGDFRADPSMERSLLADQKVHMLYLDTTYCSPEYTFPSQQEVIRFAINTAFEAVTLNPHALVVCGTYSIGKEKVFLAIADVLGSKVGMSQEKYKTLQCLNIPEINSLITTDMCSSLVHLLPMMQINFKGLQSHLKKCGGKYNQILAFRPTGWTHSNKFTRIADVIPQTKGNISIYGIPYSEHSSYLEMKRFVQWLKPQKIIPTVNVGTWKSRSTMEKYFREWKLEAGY
measurement description: SPR; single-cycle; SNM1A immobilised via biotinylated N-terminal Avi tag on a Series S SA surface (~4000 RU); CSB constructs as analytes, 5 or 6 two-fold dilutions from 500 nM or 1 uM; 20 mM HEPES pH 7.5, 150 mM NaCl, 0.5 mM TCEP; 1:1 Langmuir fit; apparent KD
test settings: both partners purified
reported property: Kd
Number first, unit second.

input: Recorded Kd for CSB winged-helix domain (WHD, a.a. 1424-1493) (domain or fragment, human, UniProt Q03468 1424-1493, looked up, also called CSB-WHD; source: E. coli BL21(DE3) pLysS, purified (Ni-NTA, Superdex S75)) HDDLLVEMRNFIAFQAHTDGQASTREILQEFESKLSASQSCVFRELLRNLCTFHRTSGGEGIWKLKPEYC , please?
output: 89 nM
